Listed here: items and their measured pIC50.
- targetOfAssay: EGFR Exon19Del (Homo sapiens, UniProt P00533, DEL746-750)
- Construct: purchased Carna Bio
- Sequence (P00533 with tags, fused parts or gaps DEL746-750 limits assumed): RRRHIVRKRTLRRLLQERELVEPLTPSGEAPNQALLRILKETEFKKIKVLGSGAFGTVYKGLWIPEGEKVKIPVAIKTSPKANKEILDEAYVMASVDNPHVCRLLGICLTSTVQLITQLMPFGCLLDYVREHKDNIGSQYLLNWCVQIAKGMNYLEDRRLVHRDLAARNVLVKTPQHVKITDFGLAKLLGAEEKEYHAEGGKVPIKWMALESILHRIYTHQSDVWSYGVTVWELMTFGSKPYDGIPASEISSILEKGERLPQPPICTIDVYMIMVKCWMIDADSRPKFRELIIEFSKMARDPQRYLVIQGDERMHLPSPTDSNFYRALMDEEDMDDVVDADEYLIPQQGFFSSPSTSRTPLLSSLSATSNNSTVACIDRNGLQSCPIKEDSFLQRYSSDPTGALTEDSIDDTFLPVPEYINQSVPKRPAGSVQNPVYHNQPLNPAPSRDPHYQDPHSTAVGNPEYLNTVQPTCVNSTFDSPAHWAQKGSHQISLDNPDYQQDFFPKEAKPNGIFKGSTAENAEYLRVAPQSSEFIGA
- protocol: Inhibition of EGFR Exon19Del biochemical enzymatic activity (HTRF)
- experimentalConditions: IC50 @Del19, EGFR Exon19Del, 1 mM ATP, 1 h at room temperature
pIC50: −log10 of the molar value.
recordedEndpoint: pIC50

>  <compound>
Cc1cc2cc(n1)-c1cnn(C)c1OCCN1CC3CCC(CC3)(C1)n1c(nc3ccc(N4CCC(N(C)C)CC4)cc31)NC2=O

>  <relationSymbol>
=

>  <assayValue>
7.96

$$$$
>  <compound>
Cc1cc2cc(n1)-c1cnn(C)c1OCCN1CC3CCC(C3)(C1)n1c(nc3ccc(N4CCC(N(C)C)CC4)cc31)NC2=O (single isomer, unassigned) [Example B40B]

>  <relationSymbol>
=

>  <assayValue>
8.35

$$$$
>  <compound>
Cc1cc2cc(n1)-c1cnn(C)c1OCCN1CC3CCC(C3)(C1)n1c(nc3ccc(N4CCC(N(C)C)CC4)cc31)NC2=O (single isomer, unassigned) [Example B40A]

>  <relationSymbol>
<

>  <assayValue>
5.30

$$$$
>  <compound>
Cc1cc2cc(n1)-c1cnn(C)c1OCCCCCn1c(nc3ccc4c(c31)CCN(CCN(C)C)C4)NC2=O

>  <relationSymbol>
=

>  <assayValue>
7.80

$$$$
